# System: porcine pepsin
# measurementDescription: In vitro simulated gastric digestion stability, RP-HPLC
# Format: in vitro ADME
# measurementSetup: pig, simulated gastric fluid with porcine pepsin, pH 2
Ends that are not written are not given here.
readoutName: remaining at 2 h, 1 mg/mL (%)
Response body: numeric value in %, unit text excluded.

Determine from records and report remaining at 2 h, 1 mg/mL for FFVPF [FFVPF, Phe-Phe-Val-Pro-Phe]
87.5

* * *

# assayTarget: elastase (Sus scrofa)
# Sequence (P00772 27-266): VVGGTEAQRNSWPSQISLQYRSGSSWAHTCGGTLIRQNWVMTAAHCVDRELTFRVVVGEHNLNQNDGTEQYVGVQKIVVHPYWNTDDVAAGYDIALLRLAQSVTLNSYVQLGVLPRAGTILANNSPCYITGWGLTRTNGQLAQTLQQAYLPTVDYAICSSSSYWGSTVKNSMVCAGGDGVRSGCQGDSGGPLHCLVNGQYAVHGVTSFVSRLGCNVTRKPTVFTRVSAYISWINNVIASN
# measurementDescription: Elastase inhibition test
# Assay type: biochemical
Ends that are not written are not given here.
readoutName: pIC50
Recall that pIC50 is obtained by taking minus log10 of the concentration measured in molar.

Determine from records and report pIC50 for FFVPF [FFVPF, Phe-Phe-Val-Pro-Phe]
3.15
